Test system: WDR5 (Homo sapiens)
pKi: −log10 of the molar value.
Property name: pKi

Answered examples (5):
COC[C@H]1CCCN1C(=O)c1cc(Cl)cc(NS(=O)(=O)c2cc(Br)ccc2OC)c1O | 5.07
CNC(=O)c1cc(C2(C#N)CCCCC2)cc(NS(=O)(=O)c2cc(Br)cc(Cl)c2O)c1O | 6.62
CCc1cc(Br)cc(S(=O)(=O)Nc2cc(C3(C#N)CCC3)cc(C(=O)NC)c2O)c1O | 4.91
COc1cc(Cl)c(Br)cc1S(=O)(=O)Nc1cc(C2(C#N)CCC2)cc(C(=O)O)c1O | 6.66
COC[C@@H]1CCCN1C(=O)c1cc(OC(F)(F)F)cc(NS(=O)(=O)c2cc(Br)ccc2OC)c1O | 5.40

[1] O=C(NC[C@@H]1CCCO1)c1cc(Cl)cc(NS(=O)(=O)c2cc(Br)ccc2O)c1O
[2] CC(C)CNc1ccc(Br)cc1S(=O)(=O)Nc1cc(C2CC2)cc(C(=O)O)c1O
Qu. Consider entries 1 and 2 . Which has the numerically lower pKi? Your answer should be the label of the entry you select.
Ans. 2

---

Test system: WDR5 (Homo sapiens, UniProt P61964)
Property name: Ki (nM)

Known Ki results, listed for orientation:
COCCN(C)C(=O)c1cc(Cl)cc(NS(=O)(=O)c2cc(Br)ccc2OC)c1O | 7740
CNC(=O)c1cc(C(C)(C)C)cc(NS(=O)(=O)c2cc(Br)ccc2O)c1O | 1080

[I] O=C(O)c1c(O)c(NS(=O)(=O)c2cc(Br)ccc2O)cc(-c2ccsc2)c1F
[II] CCS(=O)(=O)c1cc(Cl)cc(NS(=O)(=O)c2cc(Br)cc(Cl)c2O)c1O
Qu. Min Ki? I | II // output: label of the selected item
Ans. II

---

Ki, WDR5 (Homo sapiens, UniProt P61964): measured values
Property name: Ki (µM)

Field: example entries. Status: answers known.
CC(C)(C)c1cc(NS(=O)(=O)c2cc(Br)ccc2O)c(O)c(C(=O)O)c1 [Example J201] | 0.7
COCCNC(=O)c1c(O)c(NS(=O)(=O)c2cc(Br)cc(Cl)c2O)cc(C2CC2)c1F [Example J147] | 0.23
COc1ccc(Br)cc1S(=O)(=O)Nc1cc(OC(F)(F)F)cc(C(=O)NCC2CCCO2)c1O (centres unmarked) [Example J179] | 0.74
COC1CCN(C(=O)c2cc(C3(C#N)CCC3)cc(NS(=O)(=O)c3cc(Br)ccc3O)c2O)C1 (centres unmarked) [Example J221] | 27.8
O=C(NC1COC1)c1cc(C2CC2)cc(NS(=O)(=O)c2cc(Br)ccc2O)c1F [Example J144] | 6.76

[I] COc1ccc(Br)cc1S(=O)(=O)Nc1cc(N2CCOCC2)cc(C(=O)O)c1O [Example J194]
[II] O=C(O)c1cc(C2CC2)cc(NS(=O)(=O)c2cc(Br)ccc2O)c1F [Example J112]
Qu. Identify the item whose Ki is the smaller number: I or II // respond with label for picked entry
Ans. II
(II: 0.78 µM, I: 10.3 µM)

---

What follows is a collection of Ki values obtained with WDR5 (Homo sapiens, UniProt P61964).
Property name: Ki (nM)

O=C(NC1CCOC1)c1cc(NS(=O)(=O)c2cc(Br)ccc2O)cc(C2CC2)c1F (stereo not shown) | 12200

[P] CCc1cc(Br)cc(S(=O)(=O)Nc2cc(OC(F)(F)F)cc(C(=O)NCC(O)CC)c2O)c1O (stereo not shown)
[Q] O=S(=O)(Nc1cc(S(F)(F)(F)(F)F)ccc1O)c1cc(Br)ccc1O [JDM-08-142A]
[R] N#CC1(c2cc(NS(=O)(=O)c3cc(Br)ccc3O)c(O)c(C(=O)NCCN3CCOCC3)c2)CCC1
[S] COC1CCN(C(=O)c2cc(Cl)cc(NS(=O)(=O)c3cc(Br)ccc3O)c2O)C1 (stereo not shown)
Qu. List items by Ki in falling order. Answer by listing the labels in the requested order.
Ans. S, R, P, Q
(S: 5440 nM, R: 860 nM, P: 350 nM, Q: 110 nM)

[P] N#CC1(c2cc(NS(=O)(=O)c3cc(Br)cc(Cl)c3O)c(O)c(C(N)=O)c2)CCCCC1
[Q] O=S(=O)(Nc1cc(C2CC2)ccc1O)c1cc(Br)ccc1O [JDM-10-108A]
[R] O=C(NC1CC(O)C1)c1cc(OC(F)(F)F)cc(NS(=O)(=O)c2cc(Br)cc(Cl)c2O)c1O (stereo not shown)
[S] CS(=O)(=O)c1cc(C2(C#N)CCC2)cc(NS(=O)(=O)c2cc(Br)cc(Cl)c2O)c1O
[T] CN(C)CCCS(=O)(=O)c1cc(Cl)cc(NS(=O)(=O)c2cc(Br)cc(Cl)c2O)c1
Qu. List the 5 entries from lowest Ki to highest Ki value. // rank by listing labels in the order requested
Ans. S, P, R, Q, T
(S: 50 nM, P: 80 nM, R: 240 nM, Q: 820 nM, T: 1450 nM)

[P] CCc1cc(Br)cc(S(=O)(=O)Nc2cc(Cl)cc(C(=O)NC(C)C(N)=O)c2O)c1O (stereo not shown)
[Q] COCCNC(=O)c1cc(NS(=O)(=O)c2cc(Br)ccc2O)cc(C2CC2)c1F
Qu. Lab note: record which item had the higher Ki, P or Q . I would appreciate it if you answered with the label of your choice.
Ans. Q

Attribution: patent US12398097B2
